Test system: HT-29 (colon cancer)
Test: Antiproliferative assay, HT-29
Assay type: cell-based
Settings: Homo sapiens; HT-29 colon cancer cells; read-out: Antiproliferative activity IC50 ± SEM, HT-29
Reported Property: IC50 (nM)

Examples with their reported IC50 follow.
{"Molecule": "N#Cc1c(-c2ccncc2)nc(SCc2nc(-c3ccccc3)no2)[nH]c1=O [Compound 10d]", "Measurement Target": "HT-29 (colon cancer)", "IC50 (nM)": 57}
{"Molecule": "COc1ccc(-c2nc(SCc3nc(-c4ccccc4)no3)[nH]c(=O)c2C#N)cc1 [Compound 10j]", "Measurement Target": "HT-29 (colon cancer)", "IC50 (nM)": 70}

a = COc1ccc(-c2noc(CSc3nc(-c4ccc(OC)cc4)c(C#N)c(=O)[nH]3)n2)cc1 [Compound 10l]
b = N#Cc1c(-c2ccccc2)nc(SCc2nc(-c3ccc(Cl)cc3)no2)[nH]c1=O [Compound 10b]
## Input API: POST /compare with a and b ; response names the item with higher IC50. Selection: enter the item's label.
## Output b

###

Biological target: VEGFR-2 (Homo sapiens)
Sequence (P35968 20-1356): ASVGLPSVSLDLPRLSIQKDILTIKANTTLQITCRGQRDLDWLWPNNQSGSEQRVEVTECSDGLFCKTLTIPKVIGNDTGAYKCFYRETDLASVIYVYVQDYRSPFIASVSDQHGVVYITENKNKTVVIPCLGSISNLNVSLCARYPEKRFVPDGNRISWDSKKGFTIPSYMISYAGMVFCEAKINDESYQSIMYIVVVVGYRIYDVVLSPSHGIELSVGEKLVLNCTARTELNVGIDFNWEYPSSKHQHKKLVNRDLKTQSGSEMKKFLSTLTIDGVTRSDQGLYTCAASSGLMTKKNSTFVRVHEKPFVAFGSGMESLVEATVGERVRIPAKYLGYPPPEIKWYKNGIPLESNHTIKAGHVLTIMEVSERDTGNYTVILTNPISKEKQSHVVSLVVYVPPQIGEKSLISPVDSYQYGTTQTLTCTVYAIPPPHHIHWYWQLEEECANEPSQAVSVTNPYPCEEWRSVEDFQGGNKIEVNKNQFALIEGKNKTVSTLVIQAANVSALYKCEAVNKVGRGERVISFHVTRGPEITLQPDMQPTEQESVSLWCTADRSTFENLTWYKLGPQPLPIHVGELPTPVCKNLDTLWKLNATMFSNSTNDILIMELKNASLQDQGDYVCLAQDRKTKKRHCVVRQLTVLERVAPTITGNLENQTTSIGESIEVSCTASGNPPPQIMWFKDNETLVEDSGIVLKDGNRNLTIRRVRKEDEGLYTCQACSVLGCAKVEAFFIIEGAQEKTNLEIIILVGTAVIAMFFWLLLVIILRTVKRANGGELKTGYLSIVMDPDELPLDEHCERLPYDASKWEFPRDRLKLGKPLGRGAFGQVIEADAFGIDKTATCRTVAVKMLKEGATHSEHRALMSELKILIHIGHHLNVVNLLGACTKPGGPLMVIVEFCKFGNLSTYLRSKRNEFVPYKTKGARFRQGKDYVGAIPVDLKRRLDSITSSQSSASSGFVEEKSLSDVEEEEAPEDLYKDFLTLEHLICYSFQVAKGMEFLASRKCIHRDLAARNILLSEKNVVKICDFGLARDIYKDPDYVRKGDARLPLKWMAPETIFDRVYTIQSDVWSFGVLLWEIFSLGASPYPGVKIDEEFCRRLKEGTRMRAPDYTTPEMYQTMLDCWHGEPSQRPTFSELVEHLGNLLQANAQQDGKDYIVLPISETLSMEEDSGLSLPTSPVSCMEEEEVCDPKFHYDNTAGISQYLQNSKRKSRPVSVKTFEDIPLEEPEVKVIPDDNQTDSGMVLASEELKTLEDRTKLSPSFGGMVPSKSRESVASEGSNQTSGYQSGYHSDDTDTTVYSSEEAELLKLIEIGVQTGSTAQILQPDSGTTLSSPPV
Assay: VEGFR-2 inhibitory assay
pIC50: −log10 of the molar value.
Reported Property: pIC50

Examples with their reported pIC50 follow.
{"Molecule": "N#Cc1c(-c2ccncc2)nc(SCc2nc(-c3ccc(Cl)cc3)no2)[nH]c1=O [Compound 10e]", "pIC50": 7.49}
{"Molecule": "COc1ccc(-c2noc(CSc3nc(-c4ccc(Cl)cc4)c(C#N)c(=O)[nH]3)n2)cc1 [Compound 10i]", "pIC50": 7.41}
{"Molecule": "COc1ccc(-c2nc(SCc3nc(-c4ccc(Cl)cc4)no3)[nH]c(=O)c2C#N)cc1 [Compound 10k]", "pIC50": 7.68}

P = COc1ccc(-c2noc(CSc3nc(-c4ccc(OC)cc4)c(C#N)c(=O)[nH]3)n2)cc1 [Compound 10l]
Q = N#Cc1c(-c2ccc(Cl)cc2)nc(SCc2nc(-c3ccc(Cl)cc3)no2)[nH]c1=O [Compound 10h]
## Input Please let me know which one, P or Q , has a lower measured pIC50 value. Selection: enter the item's label.
## Output Q

###

Test system: HT-29 (colon cancer)
Assay: Antiproliferative assay, HT-29
Assay type: cell-based
Details: Homo sapiens; HT-29 colon cancer cells; read-out: Antiproliferative activity IC50 ± SEM, HT-29
pIC50: −log10 of the molar value.
Reported Property: pIC50

{"Compound": "COc1ccc(-c2noc(CSc3nc(-c4ccc(Cl)cc4)c(C#N)c(=O)[nH]3)n2)cc1 [Compound 10i]", "pIC50": 7.47}
{"Compound": "COc1ccc(-c2nc(SCc3nc(-c4ccc(Cl)cc4)no3)[nH]c(=O)c2C#N)cc1 [Compound 10k]", "pIC50": 7.64}
{"Compound": "N#Cc1c(-c2ccncc2)nc(SCc2nc(-c3ccc(Cl)cc3)no2)[nH]c1=O [Compound 10e]", "pIC50": 7.52}
{"Compound": "N#Cc1c(-c2ccc(Cl)cc2)nc(SCc2nc(-c3ccccc3)no2)[nH]c1=O [Compound 10g]", "pIC50": 7.40}
{"Compound": "COc1ccc(-c2noc(CSc3nc(-c4ccccc4)c(C#N)c(=O)[nH]3)n2)cc1 [Compound 10c]", "pIC50": 7.29}
{"Compound": "COc1ccc(-c2noc(CSc3nc(-c4ccncc4)c(C#N)c(=O)[nH]3)n2)cc1 [Compound 10f]", "pIC50": 7.27}
{"Compound": "N#Cc1c(-c2ccccc2)nc(SCc2nc(-c3ccccc3)no2)[nH]c1=O [Compound 10a]", "pIC50": 7.35}
{"Compound": "C#Cc1cccc(Nc2ncnc3cc(OCCOC)c(OCCOC)cc23)c1 [Erlotinib, reference compound]", "pIC50": 7.52}
{"Compound": "N#Cc1c(-c2ccc(Cl)cc2)nc(SCc2nc(-c3ccc(Cl)cc3)no2)[nH]c1=O [Compound 10h]", "pIC50": 7.44}

###

Experiment: Cell viability assay (MTT) on normal MCF-10A cells
Assay type: cell-based
Details: human, MCF-10A mammary gland epithelial cells (normal cell line), MCF-10A normal cells, four-day incubation
Reported Property: viability at 96 h, 50 µM (%)
A number alone suffices; assume %.

## Input Tell me measured viability at 96 h, 50 µM for N#Cc1c(-c2ccc(Cl)cc2)nc(SCc2nc(-c3ccccc3)no2)[nH]c1=O [Compound 10g] please.
## Output 90

###

Assay: Cell viability assay (MTT) on normal MCF-10A cells
Assay type: cell-based
Conditions: human, MCF-10A mammary gland epithelial cells (normal cell line), MCF-10A normal cells, four-day incubation
Reported Property: viability at 96 h, 50 µM (%)
A number alone suffices; assume %.

## Input Tell me measured viability at 96 h, 50 µM for COc1ccc(-c2noc(CSc3nc(-c4ccncc4)c(C#N)c(=O)[nH]3)n2)cc1 [Compound 10f] please.
## Output 91

## Input Tell me measured viability at 96 h, 50 µM for COc1ccc(-c2noc(CSc3nc(-c4ccc(OC)cc4)c(C#N)c(=O)[nH]3)n2)cc1 [Compound 10l] please.
## Output 91

## Input Tell me measured viability at 96 h, 50 µM for COc1ccc(-c2nc(SCc3nc(-c4ccc(Cl)cc4)no3)[nH]c(=O)c2C#N)cc1 [Compound 10k] please.
## Output 90

## Input Tell me measured viability at 96 h, 50 µM for COc1ccc(-c2noc(CSc3nc(-c4ccccc4)c(C#N)c(=O)[nH]3)n2)cc1 [Compound 10c] please.
## Output 92

## Input Tell me measured viability at 96 h, 50 µM for COc1ccc(-c2nc(SCc3nc(-c4ccccc4)no3)[nH]c(=O)c2C#N)cc1 [Compound 10j] please.
## Output 89

## Input Tell me measured viability at 96 h, 50 µM for N#Cc1c(-c2ccccc2)nc(SCc2nc(-c3ccccc3)no2)[nH]c1=O [Compound 10a] please.
## Output 91

## Input Tell me measured viability at 96 h, 50 µM for N#Cc1c(-c2ccc(Cl)cc2)nc(SCc2nc(-c3ccc(Cl)cc3)no2)[nH]c1=O [Compound 10h] please.
## Output 92

## Input Tell me measured viability at 96 h, 50 µM for N#Cc1c(-c2ccncc2)nc(SCc2nc(-c3ccccc3)no2)[nH]c1=O [Compound 10d] please.
## Output 89

## Input Tell me measured viability at 96 h, 50 µM for N#Cc1c(-c2ccncc2)nc(SCc2nc(-c3ccc(Cl)cc3)no2)[nH]c1=O [Compound 10e] please.
## Output 90

## Input Tell me measured viability at 96 h, 50 µM for COc1ccc(-c2noc(CSc3nc(-c4ccc(Cl)cc4)c(C#N)c(=O)[nH]3)n2)cc1 [Compound 10i] please.
## Output 91

## Input Tell me measured viability at 96 h, 50 µM for N#Cc1c(-c2ccccc2)nc(SCc2nc(-c3ccc(Cl)cc3)no2)[nH]c1=O [Compound 10b] please.
## Output 90
